Target: F508del-CFTR (Homo sapiens (Human), UniProt P13569, DEL508-508)
Sequence (P13569 other isoform, or with tags, fused parts or gaps del F508-F508): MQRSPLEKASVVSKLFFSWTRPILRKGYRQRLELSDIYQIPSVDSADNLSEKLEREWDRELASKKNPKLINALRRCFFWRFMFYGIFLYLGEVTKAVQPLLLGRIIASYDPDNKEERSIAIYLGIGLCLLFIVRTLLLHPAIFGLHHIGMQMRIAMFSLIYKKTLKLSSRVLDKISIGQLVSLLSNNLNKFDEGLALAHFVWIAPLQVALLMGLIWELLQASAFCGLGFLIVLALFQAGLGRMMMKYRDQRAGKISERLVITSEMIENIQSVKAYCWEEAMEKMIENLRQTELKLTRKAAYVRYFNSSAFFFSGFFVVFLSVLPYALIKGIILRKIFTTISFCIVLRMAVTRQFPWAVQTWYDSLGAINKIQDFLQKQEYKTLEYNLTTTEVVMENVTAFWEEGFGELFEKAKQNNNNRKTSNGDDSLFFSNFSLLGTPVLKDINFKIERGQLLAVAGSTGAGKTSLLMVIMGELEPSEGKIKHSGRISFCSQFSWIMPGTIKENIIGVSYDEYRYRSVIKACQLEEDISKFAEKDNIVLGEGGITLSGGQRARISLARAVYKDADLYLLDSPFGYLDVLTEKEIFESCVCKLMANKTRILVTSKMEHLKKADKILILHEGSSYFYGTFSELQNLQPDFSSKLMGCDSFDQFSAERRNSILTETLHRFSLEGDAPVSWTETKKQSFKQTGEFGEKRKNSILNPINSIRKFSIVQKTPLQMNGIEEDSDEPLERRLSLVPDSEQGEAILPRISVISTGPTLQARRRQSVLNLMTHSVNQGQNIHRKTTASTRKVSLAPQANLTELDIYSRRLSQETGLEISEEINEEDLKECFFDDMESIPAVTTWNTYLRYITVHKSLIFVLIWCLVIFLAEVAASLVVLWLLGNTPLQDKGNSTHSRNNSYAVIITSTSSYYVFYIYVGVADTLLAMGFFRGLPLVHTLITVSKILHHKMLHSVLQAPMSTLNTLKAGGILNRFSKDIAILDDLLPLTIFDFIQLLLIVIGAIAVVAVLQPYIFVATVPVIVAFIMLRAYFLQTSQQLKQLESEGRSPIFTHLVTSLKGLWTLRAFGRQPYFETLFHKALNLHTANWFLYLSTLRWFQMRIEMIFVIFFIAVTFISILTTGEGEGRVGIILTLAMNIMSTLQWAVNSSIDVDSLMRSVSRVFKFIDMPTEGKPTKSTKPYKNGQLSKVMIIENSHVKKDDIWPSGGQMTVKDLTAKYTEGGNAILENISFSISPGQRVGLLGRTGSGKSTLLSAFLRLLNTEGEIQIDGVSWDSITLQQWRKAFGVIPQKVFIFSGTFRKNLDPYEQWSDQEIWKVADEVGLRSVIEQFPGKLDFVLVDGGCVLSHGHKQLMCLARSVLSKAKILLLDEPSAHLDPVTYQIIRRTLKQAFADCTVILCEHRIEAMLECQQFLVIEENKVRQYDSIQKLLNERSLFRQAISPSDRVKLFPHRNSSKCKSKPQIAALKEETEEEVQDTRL
Assay: Membrane potential optical (fluorescent voltage sensing dye, FLIPR III) HTS assay for F508del-CFTR modulators
Type: cell-based
Conditions: Table 9; read-out: CFTR dF508 EC50
Would you kindly list pEC50 for each of these compounds?
One number for each entry, as −log10 of the molar value.

compound	number
COc1ccc(S(=O)(=O)NC(=O)c2ccc(-n3ccc(OCC4(C(F)(F)F)CC4)n3)nc2N2C[C@@H](C)CC2(C)C)c(OC)c1	6.96
C[C@@H]1CN(c2nc(-n3ccc(OCC4C[C@@H]5CC[C@@H]4C5)n3)ccc2C(=O)NS(=O)(=O)c2ccccc2)C(C)(C)C1 (stereo partly shown)	7.10
C[C@@H]1CN(c2nc(-n3ccc(OCC4(C(F)(F)F)CCC4)n3)ccc2C(=O)NS(=O)(=O)c2ccccc2)C(C)(C)C1	7.40
C[C@@H]1CN(c2nc(-n3ccc(OCCC4(C(F)(F)F)CC4)n3)ccc2C(=O)NS(=O)(=O)c2cccc(F)c2)C(C)(C)C1	7.30
COc1cccc(S(=O)(=O)NC(=O)c2ccc(-n3ccc(OCC4(C(F)(F)F)CC4)n3)nc2N2C[C@@H](C)CC2(C)C)c1	7.70

Dear colleague, could you send me pEC50 for each of the items below? Thanks.
1. C[C@@H]1CN(c2nc(-n3ccc(OCCC4(C(F)(F)F)CC4)n3)ccc2C(=O)NS(=O)(=O)c2ccc(O)cc2)C(C)(C)C1
2. Cc1ccc(S(=O)(=O)NC(=O)c2ccc(-n3ccc(OCC4(C(F)(F)F)CC4)n3)nc2N2C[C@@H](C)CC2(C)C)cc1
3. C[C@@H]1CN(c2nc(-n3ccc(OCC4(C(F)(F)F)CC4)n3)ccc2C(=O)NS(=O)(=O)c2cccc(F)c2)C(C)(C)C1

Solution:
1: 7.52; 2: 7.15; 3: 7.30

Below are some compounds; for each one, tell me its pEC50.
1. C[C@@H]1CN(c2nc(-n3ccc(OCC4C5(CC5)C45CC5)n3)ccc2C(=O)NS(=O)(=O)c2ccccc2)C(C)(C)C1
2. Cc1ccccc1S(=O)(=O)NC(=O)c1ccc(-n2ccc(OCCC3(C(F)(F)F)CC3)n2)nc1N1C[C@@H](C)CC1(C)C
3. C[C@@H]1CN(c2nc(-n3ccc(OCC4C(C)(C)C4(C)C)n3)ccc2C(=O)NS(=O)(=O)c2ccccc2)C(C)(C)C1

Solution:
7.30
7.70
7.05

Parameters: items (list). Returns: pEC50 for each item.
1. C[C@@H]1CN(c2nc(-n3ccc(OCCC4(C(F)(F)F)CC4)n3)ccc2C(=O)NS(=O)(=O)c2ccccc2Cl)C(C)(C)C1
2. Cc1cccc(S(=O)(=O)NC(=O)c2ccc(-n3ccc(OCC4(C(F)(F)F)CC4)n3)nc2N2C[C@@H](C)CC2(C)C)c1

Solution:
1: 7.30; 2: 7.52

----------
Molecular target: human PXR (Homo sapiens (Human), UniProt O75469)
Sequence (O75469 whole entry): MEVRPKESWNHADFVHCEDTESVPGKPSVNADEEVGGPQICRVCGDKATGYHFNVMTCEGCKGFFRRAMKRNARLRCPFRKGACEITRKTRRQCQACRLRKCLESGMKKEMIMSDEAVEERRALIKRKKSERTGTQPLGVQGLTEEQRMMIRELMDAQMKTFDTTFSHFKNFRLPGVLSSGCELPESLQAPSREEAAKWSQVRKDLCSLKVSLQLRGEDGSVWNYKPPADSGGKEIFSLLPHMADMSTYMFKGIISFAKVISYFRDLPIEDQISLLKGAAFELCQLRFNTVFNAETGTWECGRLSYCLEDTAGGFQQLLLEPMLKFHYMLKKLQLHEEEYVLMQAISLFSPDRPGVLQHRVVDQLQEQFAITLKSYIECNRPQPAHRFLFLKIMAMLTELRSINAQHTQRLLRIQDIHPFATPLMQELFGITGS
Assay: PXR assay (PXR mediated CYP3A4 induction, DPX-2 cell line)
Format: cell-based
Conditions: DPX-2 cells, 48 hours, 0.1 to 60 μM
assay.metric: PXR Max Induction (% of rifampicin)

Here is how some compounds turned out for PXR Max Induction (% of rifampicin).
record.smiles	study.system	assay.metric	result
C[C@@H]1CN(c2nc(-n3ccc(OCCC4(C(F)(F)F)CC4)n3)ccc2C(=O)NS(=O)(=O)c2ccccc2)C(C)(C)C1	human PXR (Homo sapiens (Human), UniProt O75469)	PXR Max Induction (% of rifampicin)	3 % of rifampicin
C[C@@H]1CN(c2nc(-n3ccc(OCC4(C(F)(F)F)CC4)n3)ccc2C(=O)NS(=O)(=O)c2ccccc2)C(C)(C)C1	human PXR (Homo sapiens (Human), UniProt O75469)	PXR Max Induction (% of rifampicin)	19 % of rifampicin

Problem: # input compound: C[C@@H]1CN(c2nc(-n3ccc(OCC4C5(CC5)C45CC5)n3)ccc2C(=O)NS(=O)(=O)c2ccccc2)C(C)(C)C1 ; wanted: its PXR Max Induction (% of rifampicin)
Solution: 4 % of rifampicin
